Biological target: BG505 SOSIP.664 HIV-1 Env ectodomain trimer
Test: SPR
Each entry below lists one item and its recorded Kd value.
All answers are understood in nM, so give the number only.

[[record]]
binder = "PGT145 antibody (antibody, V domains shown) VH: QVQLVQSGAEVKKPGSSVKVSCKASGNSFSNHDVHWVRQATGQGLEWMGWMSHEGDKTGLAQKFQGRVTITRDSGASTVYMELRGLTADDTAIYYCLTGSKHRLRDYFLYNEYGPNYEEWGDYLATLDVWGHGTAVTVSS VL: EVVITQSPLFLPVTPGEAASLSCKCSHSLQHSTGANYLAWYLQRPGQTPRLLIHLATHRASGVPDRFSGSGSGTDFTLKISRVESDDVGTYYCMQGLHSPWTFGQGTKVEIK"
quantity_name = "Kd"
units_symbol = "nM"
numeric_readout = 4.38


As a next step, examine the binder that follows.
State its Kd: PGT151 Fab (Fab, V domains shown) VH: RVQLVESGGGVVQPGKSVRLSCVVSDFPFSKYPMYWVRQAPGKGLEWVAAISGDAWHVVYSNSVQGRFLVSRDNVKNTLYLEMNSLKIEDTAVYRCARMFQESGPPRLDRWSGRNYYYYSGMDVWGQGTTVTVSS VL: DIVMTQTPLSLSVTPGQPASISCKSSESLRQSNGKTSLYWYRQKPGQSPQLLVFEVSNRFSGVSDRFVGSGSGTDFTLRISRVEAEDVGFYYCMQSKDFPLTFGGGTKVDLKR 158
